# system: Cytochrome P450 2C19 (Homo sapiens)
# assay.procedure: enhancers of cytochrome P450 2C19 turnover – biochemical, luminescence, primary screen (AID 1025)
# details: recombinant CYP2C19, luciferin-H EGE luminescence; at 5 µM; hits give high values; 0 = fully inhibited enzyme, 1 = untreated enzyme
Screen size: about 96,000 compounds; fewer than 10 were called active. A selection follows.
So basically every entry gets a class from its activation factor, ranges being small value: < 0.5; mid value: ≥ 0.5 and < 0.9; large value: ≥ 0.9

INSERT INTO assay_data (molecule, class_name) VALUES
  ('C=CCn1c(Cn2nnc3ccccc32)nnc1SCC(=O)N/N=C/c1cc(Br)cc(OC)c1O', 'mid value'),
  ('Cc1ccc(NC(=O)N2CCC(c3nc4c(nnn4Cc4c(F)cccc4Cl)c(=O)[nH]3)CC2)cc1', 'small value'),
  ('O=C(C1=C(O)C(=O)N(Cc2ccccc2)C1c1ccco1)c1ccco1 (stereo unspecified)', 'large value'),
  ('Cc1ccc(S(=O)(=O)N(CC(=O)NCCSC2CCCCC2)c2ccccc2F)cc1', 'large value'),
  ('COc1ccc(CC(=O)Nc2sc(Cc3ccccc3)c(C)c2C(N)=O)cc1', 'large value'),
  ('Cc1cc2[nH]ncc2cc1NC(=S)NC(=O)c1ccccc1', 'small value'),
  ('CC/C(C)=N/Nc1nc2sc3c(c2c(=O)[nH]1)CC(C)(C)OC3', 'mid value'),
  ('CSC1=N/C(=C\c2ccc3c(c2)OCO3)C(=O)S1', 'large value'),
  ('COC(=O)Nc1sc2nc(C)cc(C)c2c1-n1cccc1', 'mid value'),
  ('OCCNc1nc2ccccc2n1-c1ncnc2sc3c(c12)CCC3', 'large value'),
  ('O=C1N=C(N2CCCC2)S/C1=C\c1cccc(Br)c1', 'small value'),
  ('CSc1ccc(CCNC(=O)C2CCN(c3nnc(-n4cccc4)s3)CC2)cc1', 'mid value'),
  ('O=c1[nH][nH]c(C(F)(F)F)c1C=NCc1ccccc1Cl', 'small value'),
  ('CC1=NN(C(=O)Cc2ccc(C)cc2)C(O)(c2cccnc2)C1 (stereo unspecified)', 'small value'),
  ('C/C(=N\NS(=O)(=O)c1ccc(Br)cc1)c1cccs1', 'small value'),
  ('Cc1[nH]nc(-c2ccc(OCc3cnn(-c4ccccc4)c3)cc2O)c1Oc1ccc(Cl)cc1', 'mid value'),
  ('COc1ccc2c(c1)SC(C)CC2=O (stereo unspecified)', 'small value'),
  ('CC(Sc1nnc(Cc2ccc([N+](=O)[O-])cc2)o1)C(N)=O (stereo unspecified)', 'mid value'),
  ('CCn1cc(C(=O)N/N=C(/C)c2ccc(F)cc2)c(=O)c2cc(F)c(N3CCCC3)cc21', 'mid value'),
  ('C=CCn1c(SCC(=O)c2c(N)n(C)c(=O)n(C)c2=O)nc2sc(CC)cc2c1=O', 'large value'),
  ('O=C1Nc2ccc(Br)cc2/C1=N/N=C/C1=C(N2CCOCC2)C(=C\c2ccccc2)/CC1', 'large value'),
  ('CN(C)/C=C/C(=O)c1ccccc1F', 'large value'),
  ('O=C(CCc1ccc(S(=O)(=O)NC2CCCCC2)cc1)NCc1ccccc1', 'small value'),
  ('Cc1ccccc1-n1nc(C)c2cc(C(=O)NC3CC3)sc21', 'small value'),
  ('CC1(C)COC(c2cccn2Cc2ccccc2Cl)=N1', 'large value'),
  ('Cc1ccc(N2C(=O)C(Cc3ccccc3)NC2=S)cc1 (stereo unspecified)', 'mid value'),
  ('C=CCn1c(SCC(=O)NCc2ccccc2)nnc1-c1cc(Br)ccc1O', 'small value'),
  ('CC(Oc1ccc(Cl)cc1Cl)C(=O)/C=C/N(C)C (stereo unspecified)', 'small value'),
  ('Cc1noc(C)c1COC(=O)c1cc2ccccc2cc1O', 'small value'),
  ('Cc1ccc(O)c(CNc2nc3ccccc3n2C)c1', 'mid value'),
  ('COc1ccc(NCc2nnc(SCc3ccccc3)n2-c2ccc(OC)cc2)cc1', 'small value'),
  ('COc1ccc(-c2cc3nc(C)c(CCC(=O)NC(C)CCc4ccco4)c(C)n3n2)c(OC)c1 (stereo unspecified)', 'mid value'),
  ('CC(C)N(c1ccccc1)c1ncnc(NCCC(=O)O)c1[N+](=O)[O-]', 'small value'),
  ('O=C(/C=C/c1ccccc1)c1ccoc1', 'mid value'),
  ('O=C(Nc1ccc(Br)cc1)c1cccc(NC(=O)C2C3CC4OC(=O)C2C4C3)c1 (stereo unspecified)', 'mid value'),
  ('COc1cc(C2C(C(=O)OCCC#N)=C(C)NC3=C2S(=O)(=O)c2ccccc23)cc(OC)c1OC (stereo unspecified)', 'mid value'),
  ('COC(=O)c1sc2ncccc2c1OCc1ccc(Cl)cc1Cl', 'large value'),
  ('O=C(NCCCCCCNC(=O)NCc1ccco1)NCc1ccco1', 'large value');
